Listing of entries alongside the reported Mouse weight (%).
System: colo320 colorectal cancer tumor model
Settings: 15 mg/kg once a week for four weeks; Table 3
Where a SMILES comes first, the peptide text is derived from it. The star is where a group is joined. X1 = CC[C@@]1(O)C(=O)OCc2c1cc1n(c2=O)Cc2c-1nc1ccccc1c2CCN(C1CCC1)*; X4 = CCCN(CCc1c2c(nc3ccccc13)-c1cc3c(c(=O)n1C2)COC(=O)[C@]3(O)CC)*; Propanoyl(3-maleimido) = O=C1C=CC(=O)N1CCC(=O)*; PEG6 = NCCOCCOCCOCCOCCOCCOCCC(=O)O

MOLECULE	Mouse weight (%)
CC[C@@]1(O)C(=O)OCC2=C1C=C1c3nc4ccccc4c(CCN(C(=O)OCc4ccc(NC(=O)[C@H](CC(N)=O)NC(=O)[C@H](C)NC(=O)[C@H](C)NC(=O)CCOCCOCCOCCOCCOCCOCCNC(=O)CCN5C(=O)C=CC5=O)cc4)C(C)C)c3CN1C2 [MI-6PEG-AAN-PAB-Belotecan]	+29%
CC[C@@]1(O)C(=O)OCc2c1cc1n(c2=O)Cc2c-1nc1ccccc1c2CCN(C(=O)CNC(=O)[C@H](CC(N)=O)NC(=O)[C@H](C)NC(=O)[C@H](C)NC(=O)CCOCCOCCOCCOCCOCCOCCNC(=O)CCN1C(=O)C=CC1=O)C1CCC1 [MI-6PEG-AANG-D7] ({Propanoyl(3-maleimido)-PEG6}-AANG-X1)	+26%
CCCN(CCc1c2c(nc3ccccc13)-c1cc3c(c(=O)n1C2)COC(=O)[C@]3(O)CC)C(=O)CNC(=O)[C@H](CC(N)=O)NC(=O)[C@H](C)NC(=O)[C@H](C)NC(=O)CCOCCOCCOCCOCCOCCOCCNC(=O)CCN1C(=O)C=CC1=O [MI-6PEG-AANG-D3] ({Propanoyl(3-maleimido)-PEG6}-AANG-X4)	+31%

* * *

System: sarcoma SJSA-1 tumor model
Conditions: 5 mg/kg once a week for three weeks; Table 2
Protocol: Test objective: To investigate the antitumor efficacy of the above compounds in an animal tumor model of sarcoma SJSA-1. Test drug: Polypeptide conjugate, Irinotecan, Belotecan and normal saline control group. Test animals: 6-8 weeks old BALB/c mice, all female. SJSA-1 cells were purchased from ATCC and cultured in a DMEM medium containing 10% fetal bovine serum at 37° C. in 5% CO2. Passaging was performed every three days, and cells within 15 generations were used. […]

MOLECULE	UNIT ABBREV	Mouse weight (%)
CCNCCc1c2c(nc3ccccc13)-c1cc3c(c(=O)n1C2)COC(=O)[C@]3(O)CC [D2]	%	−8
CC[C@@]1(O)C(=O)OCc2c1cc1n(c2=O)Cc2c-1nc1ccccc1c2CCNCC(C)C	%	−5
CC[C@@]1(O)C(=O)OCc2c1cc1n(c2=O)Cc2c-1nc1ccccc1c2CCNC1CCC1	%	−7
CC[C@@]1(O)C(=O)OCc2c1cc1n(c2=O)Cc2c-1nc1ccccc1c2CCNC(C)C [Belotecan, reference compound]	%	−9
CC[C@@]1(O)C(=O)OCc2c1cc1n(c2=O)Cc2c-1nc1ccccc1c2CCNC [D1]	%	−6
CCCNCCc1c2c(nc3ccccc13)-c1cc3c(c(=O)n1C2)COC(=O)[C@]3(O)CC	%	−5
CCCCNCCc1c2c(nc3ccccc13)-c1cc3c(c(=O)n1C2)COC(=O)[C@]3(O)CC	%	−7
